Tested on: HEK293 (293) cells
Assay: Cell viability (cell kill) assay
Type: cell-based
Conditions: 293; Table 11; 3 days
Procedure: PRLR-overexpressing cells, including HEK293, PC3, MCF7 and NCI-N87, were generated to assess the ability of anti-PRLR conjugated antibodies to reduce cell viability. […] Next, the ability of anti-PRLR-DM1 antibody-drug conjugates (i.e., anti-PRLR antibodies conjugated to DM1 via a non-cleavable linker [SMCC]) to reduce cell viability was determined using in vitro cell based assays. […] IC50 values were determined from a four-parameter logistic equation over a 10-point response curve (GraphPad Prism).
result.type: IC50
Write the numeric value and append its unit.

Identify measured IC50 corresponding to COc1cc2cc(c1Cl)N(C)C(=O)C[C@H](OC(=O)[C@H](C)N(C)C(=O)CCS)[C@]1(C)O[C@H]1[C@H](C)[C@@H]1C[C@@](O)(NC(=O)O1)[C@H](OC)/C=C/C=C(\C)C2 [DM1 (free drug)]
0.27 nM

* * *

Test system: T47D cells
Assay: Cell viability (cell kill) assay
Type: cell-based
Conditions: T47D; Table 16; read-out: IC50
result.type: pIC50
// returns pIC50 (minus log10 of molar concentration), number only

Output reported pIC50 of the compound COc1cc2cc(c1Cl)N(C)C(=O)C[C@H](OC(=O)[C@H](C)N(C)C(=O)CCS)[C@]1(C)O[C@H]1[C@H](C)[C@@H]1C[C@@](O)(NC(=O)O1)[C@H](OC)/C=C/C=C(\C)C2 [DM1 (free drug)] on T47D cells.
9.68

// data source = patent US9688764B2
